assay system: Calcium-dependent protein kinase 1 (Plasmodium falciparum (isolate 3D7)) (UniProt P62344)
Sequence (P62344 whole entry, looked up): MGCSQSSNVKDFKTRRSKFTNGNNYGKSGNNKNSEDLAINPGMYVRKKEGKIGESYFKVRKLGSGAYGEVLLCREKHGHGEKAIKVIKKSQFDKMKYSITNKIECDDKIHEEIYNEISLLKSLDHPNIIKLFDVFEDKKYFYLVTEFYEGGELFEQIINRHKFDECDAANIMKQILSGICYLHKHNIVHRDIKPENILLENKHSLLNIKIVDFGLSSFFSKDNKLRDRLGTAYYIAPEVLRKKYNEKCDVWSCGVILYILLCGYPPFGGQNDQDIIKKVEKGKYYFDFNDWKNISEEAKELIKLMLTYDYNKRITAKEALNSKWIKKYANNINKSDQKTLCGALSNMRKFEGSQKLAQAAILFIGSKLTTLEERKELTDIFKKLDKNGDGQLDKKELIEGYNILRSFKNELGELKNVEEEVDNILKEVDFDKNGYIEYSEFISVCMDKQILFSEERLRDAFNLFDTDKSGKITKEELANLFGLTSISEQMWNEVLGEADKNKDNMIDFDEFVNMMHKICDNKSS
method: PfCDPK1 kinase inhibitors, biochemical, TCAMS library (AID 1159585);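 note: inhibitors leave more ATP so luminescence rises with inhibition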
reported conditions: recombinant PfCDPK1, Kinase-Glo ATP depletion luminescence
Measured potencies and affinities stand elsewhere. Activity calls are given as the source filed them. No cut-off is given here; in the data, nearly all actives have IC50 up to about 0.98 µM.
reported metric: outcome

1) Cc1cc(N[C@@H](Cc2ccccc2)C(=O)NC2CCCC2)nc(NCC2CCCCC2)n1: inactive
2) COc1ccc2nccc(N3CCN(CCNCc4ccc5c(n4)NC(=O)CS5)CC3)c2c1: inactive
3) Cc1cccc2[nH]c(-c3cccc(-c4ccc(NC(=O)C(C)C(=O)NC(C)C)cc4)c3)nc12 (centres undefined): inactive
4) NC1=NC2(CCCC2)C(c2ccc(Cl)c(Cl)c2)C(N)=N1 (centres undefined): inactive
5) O=C(N[C@@H](Cc1ccccc1)[C@H](O)CNC1CCCc2ccccc21)c1cc(C2CCCC2)cc(N2CCCC2=O)c1 (some centres undefined): inactive
6) CCOC(=O)c1ccc(NC(=O)Nc2ccc(-c3ccc(-c4nc5c(C)cccc5[nH]4)s3)cc2)cc1: inactive
7) Cc1c(CCNC(=O)CCCN2CC(C)CC(C)C2)c2ccccc2n1C (centres undefined): inactive
8) Cc1ccc2nc(Cl)c3cc(C(=O)NCCCN4CCCC4)sc3c2c1: inactive
9) COc1cc(F)c2ncc(C#N)c(CCN3CCC(NCc4ccc5c(c4)OCCO5)CC3)c2c1: inactive
10) CC(C)C[C@@H](NC(=O)NC1CCC(CCN2[C@@H]3CC[C@H]2CC(OC(=O)C(CO)c2ccccc2)C3)CC1)C(O)(c1ccccc1)c1ccccc1 (some centres undefined): inactive
11) COc1ccc(OCc2ccccn2)c(C2CCN(CCCCNC(=O)c3ccc(NC(=O)c4ccc(Cl)cc4)cc3)CC2)c1: inactive
12) COc1ccccc1CCNc1nc(C)cc(N[C@@H](Cc2ccccc2)C(=O)NCCc2ccccc2)n1: inactive
13) COC(=O)/C=C/c1ccc(CCC(C)NCC(O)c2cccc(Cl)c2)cc1 (centres undefined): inactive
14) N#Cc1ccc2c(c1)CCN(CCC1CCC(NC(=O)c3cc4cccc(Cl)c4[nH]3)CC1)CC2 (centres undefined): inactive
15) CCN(CC)CCCn1c(N)c(-c2nc3ccccc3[nH]2)c2nc(C#N)c(C#N)nc21: inactive
16) Fc1cc(Cl)ccc1Nc1ccnc2cc(-c3ccc(CN4CCNCC4)o3)ccc12: inactive
17) COc1ccc(Cl)cc1NC(=O)C(C)Nc1ccc(-c2ccccc2)cc1 (centres undefined): inactive
18) O=C(NCC1CCC(C(=O)NC2CCCc3ccccc32)CC1)c1ccc(O)c(-c2ccc(Cl)c(Cl)c2)c1 (centres undefined): inactive
19) Cc1cc(NC(=O)c2coc3cc(F)c(N4C[C@@H](C)N(C)[C@@H](C)C4)cc23)ccc1-n1ccnc1: inactive
